Consider the following compounds; for each one, report its Cell Growth Effect (%).
System: Human fibroblasts
Test: Cytotoxicity test (MTT, cell growth effect)
Assay type: cell-based
Settings: 100 µM, 24 hours, MTT absorbance at 570 nm relative to purified water control (=100)
Residues, ends and D or L forms follow the SMILES beside them.
Output spec: scalar in %, unitless text.

// lookup Cell Growth Effect (%) for CC(C)C[C@H](NC(=O)[C@H](Cc1ccccc1)NC(=O)CNC(=O)CNC(=O)[C@H](Cc1ccc(O)cc1)NC(=O)c1cccnc1)C(=O)N[C@@H](CCCNC(=N)N)C(=O)N[C@@H](CCCCN)C(=O)N[C@@H](Cc1ccc(O)cc1)C(=O)N1CCC[C@H]1C(=O)O [Example 3] (HELM PEPTIDE1{[O=C(c1cccnc1)[*:2]].Y.G.G.F.L.R.K.Y.P}$$$$V2.0)
99.1

Give the measured Cell Growth Effect (%) of `CC(C)C[C@H](NC(=O)[C@H](Cc1ccccc1)NC(=O)CNC(=O)CNC(=O)[C@H](Cc1ccc(O)cc1)NC(=O)c1cccnc1)C(=O)O` .
101.3

###

Test system: Human fibroblasts
Experiment: Cytotoxicity test (MTT, cell growth effect)
Type: cell-based
Settings: 100 µM, 24 hours, MTT absorbance at 570 nm relative to purified water control (=100)
Method: 50 µl of 3-(4,5-dimethylthiazol-2-yl)-2,5-diphenyltetrazolium bromide (MTT, Sigma M5655, USA) solution (2.5 mg/mℓ) was added to the culture solution, followed by further culturing for 3 hours. […] 100 µl of the resulting solution was added to a 96-well plate and its absorbance was measured at 570 nm with enzyme-linked immunosorbent assay (ELISA).
Residues, ends and D or L forms follow the SMILES beside them.
Attribute measured: Cell Growth Effect (%)
Quick reminder: number only, in %, skip the unit.

Find Cell Growth Effect (%) (Human fibroblasts) for the entry `CSCC[C@H](NC(=O)[C@H](Cc1ccccc1)NC(=O)CNC(=O)CNC(=O)[C@H](Cc1ccc(O)cc1)NC(=O)c1cccnc1)C(=O)O`
102.1

Recall the recorded Cell Growth Effect (%) for `O=C(O)CNC(=O)[C@H](CS)NC(=O)CC[C@H](NC(=O)c1cccnc1)C(=O)O` with Human fibroblasts and state it.
98.3

For the record CC(C)C[C@H](NC(=O)[C@H](Cc1ccccc1)NC(=O)CNC(=O)CNC(=O)[C@H](Cc1ccc(O)cc1)NC(=O)c1cccnc1)C(=O)N[C@@H](CCCNC(=N)N)C(=O)N[C@@H](CCCCN)C(=O)N[C@@H](Cc1ccc(O)cc1)C(=O)N1CCC[C@H]1C(=O)N[C@@H](CCCCN)C(=O)O [Example 4] (HELM PEPTIDE1{[O=C(c1cccnc1)[*:2]].Y.G.G.F.L.R.K.Y.P.K}$$$$V2.0) , what value of Cell Growth Effect (%) is listed for Human fibroblasts?
98.8

Provide the documented Cell Growth Effect (%) with Human fibroblasts as the system for C[C@@H](O)[C@H](NC(=O)[C@H](CCCCN)NC(=O)c1cccnc1)C(=O)N[C@H](C(=O)N[C@@H](CCCCN)C(=O)N[C@@H](CO)C(=O)O)[C@@H](C)O [Comparative Example 2] (HELM PEPTIDE1{[O=C(c1cccnc1)[*:2]].K.T.T.K.S}$$$$V2.0)
97.6

###

Assay: Cytotoxicity test (MTT, cell growth effect)
Format: cell-based
Details: human fibroblasts, MTT absorbance at 570 nm relative to purified water control (=100)
Attribute measured: viability at 24 h, 100 µM (%)
Give the value, in units of %, as a plain number.

Reported viability at 24 h, 100 µM for O=C(O)c1cccnc1 [Nicotinic acid] : what is it?
102

Item NC(=O)c1cccnc1 [Nicotinamide] has what recorded viability at 24 h, 100 µM?
103
